- TEST_SYSTEM: HIV-1 protease (Human immunodeficiency virus type 1 group M subtype B)
- EXPERIMENT_NOTES: biochemical
- REPORTED_CONDITIONS: Table II; enzyme HIV-1; DOSE 1.100 (unit not given)
ASSAY_METRIC: PROTEASE % INHIB. (%)
A number alone suffices; assume %.

* N#Cc1ccc(S(=O)(=O)Nc2cccc(CC3=C(O)CC(CCc4ccccc4)(CCc4ccccc4)OC3=O)c2)nc1 | 70.71
* CCC[C@@]1(CCc2ccccc2)CC(O)=C([C@@H](c2cccc(NS(=O)(=O)c3cn(C)cn3)c2)C(C)(C)C)C(=O)O1 (single isomer, unassigned) [Example 308] | 95.01

Provide measured PROTEASE % INHIB. value, entry: CCC[C@@]1(CCc2ccccc2)CC(O)=C([C@@H](c2cccc(NS(=O)(=O)c3cn(C)cn3)c2)C(C)(C)C)C(=O)O1 (single isomer, unassigned) [Example 310] 78.69

Provide measured PROTEASE % INHIB. value, entry: CCCC1(CCC)CC(O)=C(C(c2cccc(NS(=O)(=O)c3ccc(C(F)(F)F)cn3)c2)C(C)(C)C)C(=O)O1 (single isomer, unassigned) [Example 285] 99.11

Provide measured PROTEASE % INHIB. value, entry: Cn1cnc(S(=O)(=O)Nc2cccc(C(C3=C(O)CC(CCc4ccccc4)(CCC(F)(F)F)OC3=O)C(C)(C)C)c2)c1 (single isomer, unassigned) [Example 276] 66.1

Provide measured PROTEASE % INHIB. value, entry: CCCC1(CCc2ccc(F)cc2)CC(O)=C(C(CC)c2cccc(NS(=O)(=O)c3ccc(C(N)=O)cn3)c2)C(=O)O1 (stereo not drawn) 86.23

---

- TEST_SYSTEM: HIV-1 protease (Human immunodeficiency virus type 1 group M subtype B)
- EXPERIMENT_NOTES: biochemical
- REPORTED_CONDITIONS: Table II; enzyme HIV-1; DOSE 10.000 (unit not given)
# PROTEASE % INHIB. annotations
A number alone suffices; assume %.

Recorded results for 2 compounds are shown here.
* CCC[C@@]1(CCc2ccc(F)cc2)CC(O)=C([C@@H](c2cccc(NS(=O)(=O)c3ccc(N)cn3)c2)C(C)(C)C)C(=O)O1 (single isomer, unassigned) [Example 317] | 101.26
* CC(C)CC1(CC(C)C)CC(O)=C(C(c2cccc(NS(=O)(=O)c3ccc(C#N)cn3)c2)C(C)(C)C)C(=O)O1 (racemic) [Example 306] | 82.59

// moving on: another record for PROTEASE % INHIB.
# assay system HIV-1 protease (Human immunodeficiency virus type 1 group M subtype B): give PROTEASE % INHIB. of CCC[C@@]1(CCc2ccccc2)CC(O)=C([C@@H](c2cccc(NS(=O)(=O)c3cn(C)cn3)c2)C(C)(C)C)C(=O)O1 (single isomer, unassigned) [Example 310] 124.77

---

- TEST_SYSTEM: HIV-1 protease (Human immunodeficiency virus type 1 group M subtype B)
- EXPERIMENT_NOTES: biochemical
- REPORTED_CONDITIONS: Table II; enzyme HIV-1; DOSE 10.000 (unit not given)
# PROTEASE % INHIB. annotations
A number alone suffices; assume %.

- CCC[C@]1(CCc2ccc(F)cc2)CC(O)=C([C@H](c2cccc(NS(=O)(=O)c3cn(C)cn3)c2)C(C)(C)C)C(=O)O1 (single isomer, unassigned): 85.86

# assay system HIV-1 protease (Human immunodeficiency virus type 1 group M subtype B): give PROTEASE % INHIB. of CCCC1(CCc2ccccc2)CC(O)=C(C(c2cccc(NS(=O)(=O)c3ccc(C#N)cn3)c2)C2CC2)C(=O)O1 (stereo not drawn) 93.77

---

Values of Ki reported for single chain tethered (tandem) HIV protease (HIV-1 M:B_HXB2R, UniProt P04585) appear below.
A number alone suffices; assume nM.

Recorded results for 6 molecules are shown here.
- CCC[C@@]1(CCc2ccccc2)CC(O)=C([C@H](CC)c2cccc(NS(=O)(=O)c3ccc(N)cn3)c2)C(=O)O1 (single isomer, unassigned) [Example 315]: 0.029
- CC(C)CC1(CC(C)C)CC(O)=C(C(c2cccc(NS(=O)(=O)c3ccc(C#N)cn3)c2)C(C)(C)C)C(=O)O1 (racemic): 0.04
- CCCC1(CCc2ccccc2)CC(O)=C(C(c2cccc(NS(=O)(=O)c3ccc(C(F)(F)F)cn3)c2)C(C)(C)C)C(=O)O1 (single isomer, unassigned): 0.071
- CCC[C@@]1(CCc2ccc(F)cc2)CC(O)=C([C@@H](c2cccc(NS(=O)(=O)c3ccc(N)cn3)c2)C(C)(C)C)C(=O)O1 (single isomer, unassigned) [Example 317]: 0.04
- CCC[C@]1(CCc2ccccc2)CC(O)=C([C@H](CC)c2cccc(NS(=O)(=O)c3ccc(C#N)cn3)c2)C(=O)O1 (single isomer, unassigned): 0.032
- CCCC1(CCc2ccccc2)CC(O)=C(C(c2cccc(NS(=O)(=O)c3ccc(N)cn3)c2)C(C)(C)C)C(=O)O1 (stereo not drawn): 0.2

# assay system single chain tethered (tandem) HIV protease (HIV-1 M:B_HXB2R, UniProt P04585): give Ki of CCC(C1=C(O)C2CCCCC2OC1=O)c1cccc(NS(=O)(=O)c2ccc(C#N)cn2)c1 (stereo not drawn) 0.05

# assay system single chain tethered (tandem) HIV protease (HIV-1 M:B_HXB2R, UniProt P04585): give Ki of Cn1cnc(S(=O)(=O)Nc2cccc(C(C3=C(O)CC(CCc4ccccc4)(CCC(F)(F)F)OC3=O)C(C)(C)C)c2)c1 (single isomer, unassigned) [Example 276] 33

# assay system single chain tethered (tandem) HIV protease (HIV-1 M:B_HXB2R, UniProt P04585): give Ki of CCCC1(CCc2ccc(F)cc2)CC(O)=C(C(CC)c2cccc(NS(=O)(=O)c3ccc(C(N)=O)cn3)c2)C(=O)O1 (stereo not drawn) 0.4

# assay system single chain tethered (tandem) HIV protease (HIV-1 M:B_HXB2R, UniProt P04585): give Ki of CCC[C@]1(CCc2ccccc2)CC(O)=C([C@@H](CC)c2cccc(NS(=O)(=O)c3ccc(C#N)cn3)c2)C(=O)O1 (single isomer, unassigned) 0.1

# assay system single chain tethered (tandem) HIV protease (HIV-1 M:B_HXB2R, UniProt P04585): give Ki of CC(C)(C)C(C1=C(O)CC(CCc2ccccc2)(CCc2ccccc2)OC1=O)c1cccc(NS(=O)(=O)c2ccc(N)cn2)c1 (single isomer, unassigned) 1.1

# assay system single chain tethered (tandem) HIV protease (HIV-1 M:B_HXB2R, UniProt P04585): give Ki of "N#Cc1ccc(S(=O)(=O)Nc2cccc(CC3=C(O)CC(CCc4ccccc4)(CCc4ccccc4)OC3=O)c2)nc1" 5.3

---

- TEST_SYSTEM: HIV-1 protease (Human immunodeficiency virus type 1 group M subtype B, UniProt P04585)
- EXPERIMENT_NOTES: biochemical
- REPORTED_CONDITIONS: Table I; Dose 3.300 μM; read-out: Protease % Inhib
# inhibition at 3.3 µM annotations
A number alone suffices; assume %.

Recorded results for 3 compounds are shown here.
* Cn1cnc(S(=O)(=O)Nc2cccc(C(C3=C(O)CC(CCC4CC4)(CCC4CC4)OC3=O)C(C)(C)C)c2)c1 (stereo not shown) [Example 264] | 57.6
* N#Cc1ccc(S(=O)(=O)Nc2cccc(C(c3c(O)cc(C(CC4CC4)CC4CC4)oc3=O)C3CC3)c2)cc1 (stereo not shown) [Example 95] | 113
* CCC(Cc1ccccc1)c1cc(O)c(C(c2cccc(NS(=O)(=O)c3ccc([N+](=O)[O-])cc3)c2)C2CC2)c(=O)o1 (stereo not shown) [Example 150] | 103

// moving on: another record for inhibition at 3.3 µM
# assay system HIV-1 protease (Human immunodeficiency virus type 1 group M subtype B, UniProt P04585): give inhibition at 3.3 µM of CCCC1(CCc2ccc(F)cc2)CC(O)=C(C(c2cccc(NS(=O)(=O)c3ccc(C#N)cn3)c2)C(C)(C)C)C(=O)O1 (stereo not shown) [Example 253] 95.9

---

- TEST_SYSTEM: HIV-1 protease (Human immunodeficiency virus type 1 group M subtype B)
- EXPERIMENT_NOTES: biochemical
- REPORTED_CONDITIONS: Table II; enzyme HIV-1; DOSE 10.000 (unit not given)
ASSAY_METRIC: PROTEASE % INHIB. (%)
A number alone suffices; assume %.

Recorded results for 3 compounds are shown here.
* CCCC1(CCC)CC(O)=C(C(CC)c2cccc(NS(=O)(=O)c3ccc(C(N)=O)cn3)c2)C(=O)O1 (stereo not drawn) [Example 334] | 97.61
* CCC[C@@]1(CCc2ccc(F)cc2)CC(O)=C([C@H](c2cccc(NS(=O)(=O)c3cn(C)cn3)c2)C(C)(C)C)C(=O)O1 (single isomer, unassigned) [Example 351] | 78.53
* CCC[C@@]1(CCc2ccc(F)cc2)CC(O)=C([C@@H](c2cccc(NS(=O)(=O)c3cn(C)cn3)c2)C(C)(C)C)C(=O)O1 (single isomer, unassigned) [Example 349] | 103.49

Provide measured PROTEASE % INHIB. value, entry: N#Cc1ccc(S(=O)(=O)Nc2cccc(CC3=C(O)CC(CCc4ccccc4)(CCc4ccccc4)OC3=O)c2)nc1 [Example 353] 51.8

Provide measured PROTEASE % INHIB. value, entry: CCC(C1=C(O)CC(CCc2ccc(F)cc2)(CCc2ccc(F)cc2)OC1=O)c1cccc(NS(=O)(=O)c2ccc(C(N)=O)cn2)c1 (stereo not drawn) [Example 333] 89.38

Provide measured PROTEASE % INHIB. value, entry: CCC(C1=C(O)C2CCCCCC2OC1=O)c1cccc(NS(=O)(=O)c2ccc(C#N)cn2)c1 (stereo not drawn) [Example 372] 97.81

Provide measured PROTEASE % INHIB. value, entry: CCCC1(CCC)CC(O)=C(C(c2cccc(NS(=O)(=O)c3ccc(C(F)(F)F)cn3)c2)C(C)(C)C)C(=O)O1 (single isomer, unassigned) [Example 285] 104.61
